Kindly supply the reported IC50 values for the records listed here.
molecular target: JAK 1 (Homo sapiens (Human), UniProt P23458); test: Biochemical potency on JAK1, TR-FRET LANCE Ultra kinase assay (compounds 1-92); details: ATP at Km, read-out: JAK1 inhibitory activity (pIC50 class) (converted)
Sequence (P23458 whole entry): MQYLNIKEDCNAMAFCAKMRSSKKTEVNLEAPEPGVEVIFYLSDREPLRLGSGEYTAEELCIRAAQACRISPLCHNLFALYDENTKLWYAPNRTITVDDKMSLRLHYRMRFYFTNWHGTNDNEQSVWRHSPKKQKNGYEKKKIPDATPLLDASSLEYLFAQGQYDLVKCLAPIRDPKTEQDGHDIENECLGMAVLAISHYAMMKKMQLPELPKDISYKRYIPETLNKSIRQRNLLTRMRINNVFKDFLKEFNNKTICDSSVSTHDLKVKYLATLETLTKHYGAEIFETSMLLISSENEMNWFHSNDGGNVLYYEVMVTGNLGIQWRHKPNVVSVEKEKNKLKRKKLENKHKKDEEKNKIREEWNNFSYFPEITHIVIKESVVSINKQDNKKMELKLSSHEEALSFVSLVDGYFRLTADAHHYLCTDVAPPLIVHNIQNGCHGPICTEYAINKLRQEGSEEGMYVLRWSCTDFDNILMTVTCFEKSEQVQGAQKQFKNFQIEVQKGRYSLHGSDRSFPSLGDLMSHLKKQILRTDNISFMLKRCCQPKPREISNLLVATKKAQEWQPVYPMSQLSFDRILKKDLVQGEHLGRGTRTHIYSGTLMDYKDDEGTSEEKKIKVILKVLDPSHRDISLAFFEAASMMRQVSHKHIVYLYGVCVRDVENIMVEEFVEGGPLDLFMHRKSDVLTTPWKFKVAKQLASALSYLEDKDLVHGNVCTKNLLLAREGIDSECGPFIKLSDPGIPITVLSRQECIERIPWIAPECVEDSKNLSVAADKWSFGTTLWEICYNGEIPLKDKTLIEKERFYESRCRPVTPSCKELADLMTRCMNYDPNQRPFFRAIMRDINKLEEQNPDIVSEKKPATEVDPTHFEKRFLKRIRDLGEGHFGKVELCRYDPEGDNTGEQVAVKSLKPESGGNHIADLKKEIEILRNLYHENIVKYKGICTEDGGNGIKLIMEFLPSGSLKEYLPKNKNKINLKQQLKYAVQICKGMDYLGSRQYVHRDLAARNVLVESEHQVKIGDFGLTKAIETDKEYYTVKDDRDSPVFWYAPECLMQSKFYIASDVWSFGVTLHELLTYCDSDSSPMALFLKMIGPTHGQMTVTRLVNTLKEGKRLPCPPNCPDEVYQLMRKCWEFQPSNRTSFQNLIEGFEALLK

{"COMPOUND": "COc1cc(NC(=O)c2ccccc2)cnc1-n1nc(C)c2cnc(-c3cnn4cccnc34)cc21 [Example 48]", "IC50": "5.01 to 50.1 nM"}
{"COMPOUND": "CCCS(=O)(=O)Nc1ccc(-n2nc(C(=O)NCCCN(C)C)c3cnc(-c4cnn5cccnc45)cc32)c(OC)c1 [Example 46]", "IC50": "5.01 to 50.1 nM"}
{"COMPOUND": "CNc1nn(-c2ccc(NS(C)(=O)=O)cc2OC)c2cc(-c3cnn4cccnc34)ncc12 [Example 23]", "IC50": "≤ 5.01 nM"}

// input: 7 compounds below; output: IC50 for each
1. COc1cc(CNS(C)(=O)=O)ccc1-n1nc(CC#N)c2cnc(-c3cnn4cccnc34)cc21 [Example 60]
2. COc1cc(CNS(C)(=O)=O)ccc1-n1nc(NCCN2CCOCC2)c2cnc(Nc3ncc[nH]c3=O)cc21 [Example 92]
3. CCCS(=O)(=O)Nc1ccc(-n2nc(NCCN3CCCCC3)c3cnc(Nc4ncc[nH]c4=O)cc32)c(OC)c1 [Example 88]
4. COc1cc(NS(C)(=O)=O)ccc1-n1nc(NCCCN(C)C)c2cnc(-c3cnn4cccnc34)cc21 [Example 22]
5. COc1cc(NS(=O)(=O)C2CCOC2)ccc1-n1nc(C)c2cnc(-c3cnn4cccnc34)cc21 (stereo not drawn) [Example 9]
6. COc1cc(NS(C)(=O)=O)ccc1-n1nc(N(C)CCN2CCOCC2)c2cnc(-c3cnn4cccnc34)cc21 [Example 40]
7. COc1cc(NS(C)(=O)=O)ccc1-n1nc(C(=O)NCCCN(C)C)c2cnc(-c3cnn4cccnc34)cc21 [Example 43]

A.
["≤ 5.01 nM", "≤ 5.01 nM", "≤ 5.01 nM", "≤ 5.01 nM", "5.01 to 50.1 nM", "5.01 to 50.1 nM", "≤ 5.01 nM"]

// input: 5 compounds below; output: IC50 for each
1. COc1cc(NS(C)(=O)=O)ccc1-n1nc(NCCN(C)C)c2cnc(-c3cnn4cccnc34)cc21 [Example 31]
2. O=S(=O)(Nc1ccc(-n2nc(NCCN3CCOCC3)c3cnc(-c4cnn5cccnc45)cc32)c(OC(F)F)c1)C1CC1 [Example 25]
3. CNc1nn(-c2ccc(S(=O)(=O)NC)cc2OC)c2cc(-c3cnn4cccnc34)ncc12 [Example 51]
4. COc1cc(N)ccc1-n1nc(C)c2cnc(-c3cnn4cccnc34)cc21 [Example 17]
5. COc1cc(CNS(C)(=O)=O)ccc1-n1nc(C(=O)NCCCN(C)C)c2cnc(-c3cnn4cccnc34)cc21 [Example 59]

A.
≤ 5.01 nM
5.01 to 50.1 nM
≤ 5.01 nM
5.01 to 50.1 nM
≤ 5.01 nM

----------
target: JAK 3 (Homo sapiens (Human)); test: Biochemical potency on JAK3, TR-FRET LANCE Ultra kinase assay (compounds 1-92); conditions: ATP at Km, read-out: JAK3 inhibitory activity (pIC50 class) (converted)
Sequence (P52333 whole entry): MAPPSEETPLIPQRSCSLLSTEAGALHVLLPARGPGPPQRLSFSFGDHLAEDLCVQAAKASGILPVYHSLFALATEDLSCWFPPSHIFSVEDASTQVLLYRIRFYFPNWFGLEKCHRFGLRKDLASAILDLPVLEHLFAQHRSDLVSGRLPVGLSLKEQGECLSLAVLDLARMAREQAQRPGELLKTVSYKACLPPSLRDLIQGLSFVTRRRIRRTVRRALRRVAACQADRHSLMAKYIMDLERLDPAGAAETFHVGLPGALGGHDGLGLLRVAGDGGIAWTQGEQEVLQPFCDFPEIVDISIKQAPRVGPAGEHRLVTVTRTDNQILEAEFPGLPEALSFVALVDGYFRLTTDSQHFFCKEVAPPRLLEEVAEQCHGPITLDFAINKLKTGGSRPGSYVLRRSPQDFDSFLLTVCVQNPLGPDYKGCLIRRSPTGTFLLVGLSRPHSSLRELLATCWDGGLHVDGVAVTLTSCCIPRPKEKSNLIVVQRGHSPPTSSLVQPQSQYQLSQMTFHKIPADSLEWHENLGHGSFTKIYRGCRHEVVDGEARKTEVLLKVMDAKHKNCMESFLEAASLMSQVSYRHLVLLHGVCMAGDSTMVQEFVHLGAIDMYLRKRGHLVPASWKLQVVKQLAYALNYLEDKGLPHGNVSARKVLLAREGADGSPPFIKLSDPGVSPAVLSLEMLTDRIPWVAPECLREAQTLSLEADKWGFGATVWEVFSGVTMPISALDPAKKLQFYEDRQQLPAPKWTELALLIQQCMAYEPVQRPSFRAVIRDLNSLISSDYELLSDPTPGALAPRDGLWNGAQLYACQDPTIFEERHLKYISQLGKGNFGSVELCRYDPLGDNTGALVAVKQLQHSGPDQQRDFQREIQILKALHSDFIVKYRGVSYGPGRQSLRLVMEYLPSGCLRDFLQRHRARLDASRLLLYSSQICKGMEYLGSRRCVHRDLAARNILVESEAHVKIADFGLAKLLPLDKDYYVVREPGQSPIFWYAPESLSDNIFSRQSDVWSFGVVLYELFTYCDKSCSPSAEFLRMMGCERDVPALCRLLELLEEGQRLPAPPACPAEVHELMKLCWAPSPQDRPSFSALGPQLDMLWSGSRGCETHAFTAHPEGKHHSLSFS
Kindly supply the reported IC50 values for the records listed here.

{"COMPOUND": "COc1cc(C(=O)Nc2ccccc2)ccc1-n1nc(C)c2cnc(-c3cnn4cccnc34)cc21 [Example 20]", "TGT": "JAK 3 (Homo sapiens (Human))", "IC50": "5.01 to 50.1 nM"}
{"COMPOUND": "COc1cc(NS(C)(=O)=O)ccc1-n1nc(C)c2cnc(Nc3ncc[nH]c3=O)cc21 [Example 85]", "TGT": "JAK 3 (Homo sapiens (Human))", "IC50": "≤ 5.01 nM"}
{"COMPOUND": "COc1cc(NC(=O)c2ccccc2)ccc1-n1nc(C)c2cnc(-c3cnn4cccnc34)cc21 [Example 74]", "TGT": "JAK 3 (Homo sapiens (Human))", "IC50": "5.01 to 50.1 nM"}

Let us move to another entry and its IC50.
Q. Look at this compound and give its reported IC50. COc1cc(NS(=O)(=O)C2CC2)ccc1-n1nc(C)c2cnc(-c3cnn4cccnc34)cc21 [Example 6]
A. ≤ 5.01 nM
